Origin of measurements: ChEMBL document CHEMBL2218924

Record form. Attribute: residual activity. Fill in for each entry.
Target: Calcium/calmodulin-dependent protein kinase type II subunit gamma (Homo sapiens)
Applied Conditions: at 10 µM
One number for each entry, in %.

Use the examples below as a reference point.
>  <Compound>
O=C1NC(=O)c2cc(Nc3ccc(F)cc3)c(Nc3ccc(F)cc3)cc21

>  <residual activity, %>
102

$$$$
>  <Compound>
O=C(O)c1ccc2c3c1cccc3c(=O)n1c3ccccc3nc21

>  <residual activity, %>
31

$$$$
>  <Compound>
CCOc1cc2ncnc(Nc3cccc(Br)c3)c2cc1OCC

>  <residual activity, %>
40

$$$$
>  <Compound>
CC(C)n1cnc2/c(=N/c3cccc(Cl)c3)nc(NCCO)[nH]c21

>  <residual activity, %>
6

$$$$
>  <Compound>
O=Nc1c(-c2c(O)[nH]c3ccccc23)[nH]c2ccccc12

>  <residual activity, %>
1

$$$$

Kindly review the next molecule as well.
Summary for this molecule, COc1cc2ncnc(Nc3ccc(Oc4ccccc4)cc3)c2cc1OC : residual activity is 102
